Origin of measurements: paper PMC8892280

experimental-target: full-length human LRRK2 (leucine-rich repeat kinase 2) (human, UniProt Q5S007)
Sequence (Q5S007 whole entry): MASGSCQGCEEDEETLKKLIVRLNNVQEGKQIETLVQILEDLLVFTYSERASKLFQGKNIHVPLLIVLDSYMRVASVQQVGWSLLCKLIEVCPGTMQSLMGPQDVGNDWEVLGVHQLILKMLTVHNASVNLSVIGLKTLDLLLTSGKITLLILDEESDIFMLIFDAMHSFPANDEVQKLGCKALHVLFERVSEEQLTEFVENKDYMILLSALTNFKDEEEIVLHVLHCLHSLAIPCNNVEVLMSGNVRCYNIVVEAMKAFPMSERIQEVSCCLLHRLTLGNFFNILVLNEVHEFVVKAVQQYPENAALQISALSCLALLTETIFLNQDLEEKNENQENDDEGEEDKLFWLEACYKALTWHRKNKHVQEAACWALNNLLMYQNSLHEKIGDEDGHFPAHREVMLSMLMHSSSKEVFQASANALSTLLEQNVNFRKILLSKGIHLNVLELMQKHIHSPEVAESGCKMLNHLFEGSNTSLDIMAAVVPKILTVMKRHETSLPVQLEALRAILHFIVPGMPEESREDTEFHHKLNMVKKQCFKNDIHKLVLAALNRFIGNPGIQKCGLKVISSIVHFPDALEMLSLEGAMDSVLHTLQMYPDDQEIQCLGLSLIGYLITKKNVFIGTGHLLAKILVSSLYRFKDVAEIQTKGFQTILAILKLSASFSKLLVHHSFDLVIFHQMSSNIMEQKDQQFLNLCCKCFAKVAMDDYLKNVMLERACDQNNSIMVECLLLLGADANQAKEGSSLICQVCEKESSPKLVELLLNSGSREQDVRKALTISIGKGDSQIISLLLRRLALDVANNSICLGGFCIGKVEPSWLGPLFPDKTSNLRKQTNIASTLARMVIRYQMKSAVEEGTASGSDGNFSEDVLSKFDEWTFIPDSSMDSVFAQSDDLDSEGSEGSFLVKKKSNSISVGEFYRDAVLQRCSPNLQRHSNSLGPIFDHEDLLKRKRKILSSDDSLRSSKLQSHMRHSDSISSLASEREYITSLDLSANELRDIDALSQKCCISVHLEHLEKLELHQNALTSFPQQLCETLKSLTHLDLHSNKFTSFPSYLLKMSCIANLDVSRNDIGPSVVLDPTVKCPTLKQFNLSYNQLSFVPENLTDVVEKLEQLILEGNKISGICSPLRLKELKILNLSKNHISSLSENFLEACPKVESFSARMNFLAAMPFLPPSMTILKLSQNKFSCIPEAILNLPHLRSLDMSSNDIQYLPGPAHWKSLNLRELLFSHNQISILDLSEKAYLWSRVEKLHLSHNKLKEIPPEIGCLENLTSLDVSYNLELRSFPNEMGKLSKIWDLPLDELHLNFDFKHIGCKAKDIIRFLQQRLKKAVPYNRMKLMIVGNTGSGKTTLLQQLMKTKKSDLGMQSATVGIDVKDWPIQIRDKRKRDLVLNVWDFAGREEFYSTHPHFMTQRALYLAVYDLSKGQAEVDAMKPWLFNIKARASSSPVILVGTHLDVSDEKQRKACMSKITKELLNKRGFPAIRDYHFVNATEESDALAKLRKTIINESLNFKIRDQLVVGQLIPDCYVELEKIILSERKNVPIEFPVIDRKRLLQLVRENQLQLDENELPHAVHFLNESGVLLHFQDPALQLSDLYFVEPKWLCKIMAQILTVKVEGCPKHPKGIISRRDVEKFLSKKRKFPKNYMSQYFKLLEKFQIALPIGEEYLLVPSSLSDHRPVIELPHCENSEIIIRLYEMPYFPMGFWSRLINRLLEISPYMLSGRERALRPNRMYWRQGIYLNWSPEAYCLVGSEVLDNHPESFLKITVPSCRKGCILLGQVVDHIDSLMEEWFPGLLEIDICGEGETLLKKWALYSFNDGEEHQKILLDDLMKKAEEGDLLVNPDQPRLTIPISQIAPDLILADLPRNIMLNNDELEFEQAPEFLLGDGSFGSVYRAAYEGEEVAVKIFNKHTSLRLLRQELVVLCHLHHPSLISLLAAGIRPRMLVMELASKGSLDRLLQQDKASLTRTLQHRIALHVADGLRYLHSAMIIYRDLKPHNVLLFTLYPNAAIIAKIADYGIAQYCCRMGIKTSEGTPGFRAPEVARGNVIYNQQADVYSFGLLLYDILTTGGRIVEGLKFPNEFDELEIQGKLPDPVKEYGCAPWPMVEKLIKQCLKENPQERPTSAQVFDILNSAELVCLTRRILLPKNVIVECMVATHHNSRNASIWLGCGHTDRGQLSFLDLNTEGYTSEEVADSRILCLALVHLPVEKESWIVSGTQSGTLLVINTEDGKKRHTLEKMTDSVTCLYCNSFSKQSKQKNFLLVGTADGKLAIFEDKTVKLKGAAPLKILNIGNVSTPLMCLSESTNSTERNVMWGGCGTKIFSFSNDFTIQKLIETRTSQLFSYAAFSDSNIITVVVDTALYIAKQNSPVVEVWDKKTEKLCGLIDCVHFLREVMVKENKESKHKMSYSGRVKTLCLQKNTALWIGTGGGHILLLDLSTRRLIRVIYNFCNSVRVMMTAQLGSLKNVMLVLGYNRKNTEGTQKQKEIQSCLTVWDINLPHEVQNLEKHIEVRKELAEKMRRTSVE
assay-details: MST
experimental-endpoint: Kd (nM)

Kindly note the recorded Kd for m-TAMRA-labeled Nb39 (VHH) VHH: QVQLVESGGGLVQAGGSLRLSCRASGGTFSTYAMGWFRQVPGKERETVAAVKWSGDMTYYADSVKGRFTISRDNAKNTVYLQMNSLRPEDTAVYYCAARRGLSYYRGPSEYDYWGQGTQVTVSS , which is 79

Kindly note the recorded Kd for m-TAMRA-labeled Nb38 (VHH) VHH: QVQLVESGGGLVQPGGSLRLSCAASGSIRSIATSAWYRQPPGKQRELVAGISSGTTTNYADSVKGRFTISRDNAKNTVYLQMNSLKPEDTAVYYCHAWISGTWISGQGTQVTVSS , which is 48

Kindly note the recorded Kd for m-TAMRA-labeled Nb36 (VHH) VHH: QVQLVESGGGLVQPGGSLRLSCAASGSIRSITTSAWFRQPPGKQRELVAGISSGTSTNYADSVKGRFTISRDNAKNTVYLQMNSLKPEDTAVYYCHVWISGTWYSGQGTQVTVSS , which is 78

Kindly note the recorded Kd for m-TAMRA-labeled Nb17 (VHH) VHH: QVQLVESGGGLVQPGGSLRLSCAASGSNIGYMAWYRQAPGSQRELVARIASGGSANYADSVKGRFTISRDNVKNTVYLHMNSLKPVDTAVYYCHADAWYNSRWSDYWGQGTQVTVSS , which is 67
